Reference for the values: patent US20220249447A1

test system: C. difficile ATCC BAA 1801; test: MIC against C. difficile ATCC BAA 1801; assay type: cell-based; conditions: Clostridioides difficile, BAA1801; read-out: MIC C. difficile ATCC BAA 1801
endpoint_name: MIC (µg/mL)
Numbers only; they are read as µg/mL.

**Query** What does the data say about its MIC? Entry: "O=C(Nc1nnc(-c2cccs2)o1)c1ccc(S(F)(F)(F)(F)F)cc1"
**Result** 0.03

**Query** Quick one: MIC of "O=C(Nc1nnc(-c2ccc(C(F)(F)F)cc2)o1)c1ccc(SC(F)(F)F)cc1" ?
**Result** 0.125

**Query** Given "O=C(Nc1nnc(-c2cc(Cl)cc(Cl)c2)o1)c1ccc(SC(F)(F)F)cc1" , state its recorded MIC.
**Result** 0.03

**Query** Please look up its MIC: "O=C(Nc1nnc(-c2cccc(Cl)c2)o1)c1ccc(SC(F)(F)F)nc1"
**Result** 0.015

**Query** Which MIC value is on record for "O=C(Nc1nnc(-c2cccc(Cl)c2)o1)c1ccc(SC(F)(F)F)cc1" ?
**Result** 0.03

**Query** Looking for the measured MIC of "O=C(Nc1nnc(-c2cccc(F)c2)o1)c1ccc(OC(F)(F)F)cc1" , can you help?
**Result** 0.06

**Query** Quick one: MIC of "O=C(Nc1nnc(-c2ccc(Cl)s2)o1)c1ccc(OC(F)(F)F)cc1" ?
**Result** 0.03

**Query** So what does the record say about MIC for "O=C(Nc1nnc(-c2ccc(Cl)s2)o1)c1ccc(SC(F)(F)F)cc1" ?
**Result** 0.06

* * *

For L. monocytogenes ATCC 19115, measured log10(MIC) is reported for the entries below.
Hi team, quick reminder: these entries are log10 of MIC (µg/mL).

O=C(Nc1nnc(-c2ccc(C(F)(F)F)cc2)o1)c1ccc(SC(F)(F)F)cc1 [HSGN-203] : -0.30
O=C(Nc1nnc(-c2cccs2)o1)c1ccc(S(F)(F)(F)(F)F)cc1 [HSGN-144] : 0.00
O=C(Nc1nnc(-c2cccs2)o1)c1ccc(OC(F)(F)F)cc1 [HSGN-145] : 0.90
O=C(Nc1nnc(-c2ccc(Cl)s2)o1)c1ccc(OC(F)(F)F)cc1 [HSGN-238] : -0.30
O=C(Nc1nnc(-c2cccc(F)c2)o1)c1ccc(SC(F)(F)F)cc1 [HSGN-205] : 0.00
O=C(Nc1nnc(-c2cc(Cl)cc(Cl)c2)o1)c1ccc(SC(F)(F)F)cc1 [HSGN-218] : -0.90

**Query** Lab note: need log10(MIC) with L. monocytogenes ATCC 19115 for entry O=C(Nc1nnc(-c2ccc(Cl)s2)o1)c1ccc(SC(F)(F)F)cc1 [HSGN-210] , please look it up.
**Result** -0.60

**Query** What is its log10(MIC) for L. monocytogenes ATCC 19115? Entry: O=C(Nc1nnc(-c2cccc(F)c2)o1)c1ccc(OC(F)(F)F)cc1 [HSGN-237]
**Result** -0.30

**Query** What measured log10(MIC) is associated with O=C(Nc1nnc(-c2cccc(Cl)c2)o1)c1ccc(SC(F)(F)F)cc1 [HSGN-204] on L. monocytogenes ATCC 19115?
**Result** -0.90

**Query** What reported log10(MIC) corresponds to O=C(Nc1nnc(-c2cccs2)o1)c1ccc(SC(F)(F)F)cc1 [HSGN-148] on L. monocytogenes ATCC 19115?
**Result** 0.30
